- Test system: T-47D breast
- assayMethodText: NCI tumour cell line growth inhibition, 48 h
Provide the reported TGI of each item.
# value in µM; strip the unit string

Name the reported TGI value associated with the compound `C[C@@H]1CC(=O)C[C@@H]2CC[C@H]3[C@@H]4CC[C@H](OC(=O)c5cccc6cc7ccccc7nc56)[C@H]4CC[C@@H]3[C@H]21`
37.5

Name the reported TGI value associated with the compound `Cc1nc2sc(C(=O)c3ccc(Cl)cc3)c(N)c2c(-c2ccccc2Cl)c1C(=O)Nc1ccccc1`
19

Name the reported TGI value associated with the compound `COc1ccc(CCN2CCC(CN(C)Cc3cnn(-c4ccccc4)c3)CC2)cc1`
30.7

Name the reported TGI value associated with the compound `C=C1C(=O)O[C@H]2C[C@@H]1[C@@H](O)[C@H](O)[C@@H](C)CCCC(C)=CCC[C@@]2(C)O`
57.1

Name the reported TGI value associated with the compound O=C1CSC(c2ccc(Cl)cc2Cl)N1c1ccc(Oc2ccc(Cl)cc2)c(Cl)c1 (stereo not given)
90.1

Name the reported TGI value associated with the compound `COc1cc(C)c2sc3ccccc3c(=O)c2c1NCCN(C)C`
9.4

Name the reported TGI value associated with the compound `NC1(Cc2ccc(Cl)cc2)CCN(c2ncnc3[nH]ccc23)CC1`
14.7

Name the reported TGI value associated with the compound `C(=Nc1ccc(-c2nc3ccccc3s2)cc1)c1ccc[nH]1`
47.3

* * *

- Test system: UO-31 renal
- assayMethodText: NCI tumour cell line growth inhibition, 48 h
property: TGI (µM)
# value in µM; strip the unit string

Name the reported TGI value associated with the compound O=C1CSC(c2ccc(Cl)cc2Cl)N1c1ccc(Oc2ccc(Cl)cc2)c(Cl)c1 (stereo not drawn)
32.6

Name the reported TGI value associated with the compound `COc1cc(Cl)cc(-c2nn(-c3cccc(NC(=O)Nc4ccc(Cl)c(Cl)c4)c3)cc2-c2ccncc2)c1`
18.2

* * *

- System: SK-MEL-5 melanoma
- assayMethodText: NCI tumour cell line growth inhibition, 48 h
property: TGI

Name the reported TGI value associated with the compound `Cc1c2c(c(C)c3c1[nH]c1ccccc13)CN(C)CC2`
26.1 µM

Name the reported TGI value associated with the compound `COCCOCCOCc1n(Cc2ccc3ccccc3n2)c2ccccc2[n+]1Cc1ccc2ccccc2n1`
1.48 µM

Name the reported TGI value associated with the compound `O=c1c(Cc2ccc(Cl)cc2)nnc2sc(-c3ccc(-c4ccc(Cl)cc4Cl)o3)nn12`
> 100 µM

Name the reported TGI value associated with the compound `COc1ccc(C(=O)c2sc3nc(-c4cccs4)ccc3c2N)cc1OC`
5.28 µM

Name the reported TGI value associated with the compound NC(CSSCC(N)C(=O)O)C(=O)O (stereo unspecified)
> 100 µM

Name the reported TGI value associated with the compound CN(CCCCCl)P(=O)(OCc1ccc([N+](=O)[O-])o1)OCC1OC(n2cnc([N+](=O)[O-])c2N)C(O)C1O (stereo unspecified)
> 100 µM

* * *

- Tested on: SN12C renal
- assayMethodText: NCI tumour cell line growth inhibition, 48 h
Provide the reported TGI of each item.
# value in µM; strip the unit string

Name the reported TGI value associated with the compound `Cc1c2c(c(C)c3c1[nH]c1ccccc13)CN(C)CC2`
76.6

Name the reported TGI value associated with the compound `C(=Nc1ccc(-c2nc3ccccc3s2)cc1)c1ccc[nH]1`
44.8

Name the reported TGI value associated with the compound CC1SC2(CCCCC2)N(NC(=O)c2[nH]c3ccc(Br)cc3c2-c2ccccc2)C1=O (stereo unspecified)
30.6

Name the reported TGI value associated with the compound `CCCCCCNCc1cc(C(C)(C)C)cc(CNCCCCCC)c1O`
3.15

Name the reported TGI value associated with the compound `CC(C)(C)OC(=O)NCc1cccc(N=C=S)c1`
60.3

Sourced from PubChem BioAssay (NCI)
